Target: nucleosome containing the H3(1-132)-QFI chimera (Drosophila | budding yeast), P02299
Assay: ITC
REPORTED_METRIC: pKd
// field semantics: pKd = negative decimal log of concentration (mol/L)

# return recorded pKd for entry GLRKSTRVKVAPLQYWRNEKIVY (domain or fragment, modifications not checked) [budding yeast CENP-C motif]
6.52
